Where do these numbers come from? They come from ChEMBL document CHEMBL1130927.

Tested on: Muscarinic acetylcholine receptors; M2 & M3
Assay: Selectivity ratio was calculated between Kb values at M2 and M3 muscarinic receptors
Type: protein assay
Details: Cavia porcellus
MEASUREMENT_LABEL: Ratio

>  <COMPOUND>
Cc1nccn1CCC(C(N)=O)(c1ccc(F)cc1)c1ccc(F)cc1

>  <ENDPOINT_VALUE>
16.3

$$$$
>  <COMPOUND>
Cc1nccn1CCCC(C(N)=O)(c1ccccc1)c1ccccc1

>  <ENDPOINT_VALUE>
17.6

$$$$
>  <COMPOUND>
CNC(=O)C(CCn1ccnc1C)(c1ccccc1)c1ccccc1

>  <ENDPOINT_VALUE>
1.14

$$$$
>  <COMPOUND>
Cc1nccn1CCC(C(=O)N(C)C)(c1ccccc1)c1ccccc1

>  <ENDPOINT_VALUE>
1.85

$$$$
>  <COMPOUND>
Cc1nccn1CCC(C(=O)O)(c1ccccc1)c1ccccc1

>  <ENDPOINT_VALUE>
11.9

$$$$
>  <COMPOUND>
Cc1ccc(C(CCn2ccnc2C)(C(N)=O)c2ccccc2)cc1 (stereo unspecified)

>  <ENDPOINT_VALUE>
30.3

$$$$
>  <COMPOUND>
Cc1nccn1CCC(C#N)(c1ccccc1)c1ccccc1

>  <ENDPOINT_VALUE>
1.49

$$$$
>  <COMPOUND>
Cc1nccn1CCC(C(N)=O)(c1ccccc1)c1ccccc1

>  <ENDPOINT_VALUE>
13

$$$$

(a) Cc1nccn1CCC(O)(c1ccccc1)c1ccccc1
(b) Cc1nccn1CCCCCC(C(N)=O)(c1ccccc1)c1ccccc1
[in] Just curious, which one has the larger Ratio reading, a or b ? Pick one and reply with its label.
[out] b
(b: 9.96, a: 3)

====

Biological target: UniProtKB Q8VH26
Assay: Antimuscarinic activity against M3 receptor of guinea pig ileum
Type: tissue-based
MEASUREMENT_LABEL: Kb (µM)

>  <MOLECULE>
Cc1nccn1CCC(C#N)(c1ccccc1)c1ccccc1

>  <VALUE_UNIT>
µM

>  <ENDPOINT_VALUE>
0.0104

$$$$

(I) Cc1nccn1CCC(O)(c1ccccc1)c1ccccc1
(II) Cc1nccn1CCCC(C(N)=O)(c1ccccc1)c1ccccc1
(III) Cc1nccn1CCC(CO)(c1ccccc1)c1ccccc1
[in] Order the records by Kb, with each subsequent value no larger than the one before. Respond with an ordered listing of the labels, as requested.
[out] III, I, II

(P) Cc1nccn1CC(C)C(C(N)=O)(c1ccccc1)c1ccccc1 (stereo not given)
(Q) Cc1nccn1CCC(C)(C(N)=O)c1ccccc1 (stereo not given)
[in] Just curious, which one has the larger Kb reading, P or Q ? Pick one and reply with its label.
[out] Q
(Q: 1.83 µM, P: 0.00289 µM)

====

Target: Muscarinic acetylcholine receptor M2 (Cavia porcellus)
Experiment: Antimuscarinic activity against M2 receptor of guinea pig atrium
Details: Cardiac atrium
MEASUREMENT_LABEL: Kb (nM)

Worked examples follow.
>  <COMPOUND>
Cc1nccn1CCC(C#N)(c1ccccc1)c1ccccc1

>  <VALUE_UNIT>
nM

>  <Kb>
15.5

$$$$
>  <COMPOUND>
Cc1nccn1CCCCCC(C(N)=O)(c1ccccc1)c1ccccc1

>  <VALUE_UNIT>
nM

>  <Kb>
710

$$$$
>  <COMPOUND>
Cc1ccc(C(CCn2ccnc2C)(C(N)=O)c2ccccc2)cc1 (stereo not given)

>  <VALUE_UNIT>
nM

>  <Kb>
743

$$$$
>  <COMPOUND>
CNC(=O)C(CCn1ccnc1C)(c1ccccc1)c1ccccc1

>  <VALUE_UNIT>
nM

>  <Kb>
5870

$$$$
>  <COMPOUND>
Cc1nccn1CCC(C(N)=O)(c1ccc(F)cc1)c1ccc(F)cc1

>  <VALUE_UNIT>
nM

>  <Kb>
161

$$$$

(I) Cc1nccn1CCCCC(C(N)=O)(c1ccccc1)c1ccccc1
(II) Cc1nccn1CCC(C(=O)N(C)C)(c1ccccc1)c1ccccc1
(III) Cc1nccn1CCC(C(N)=O)(c1ccccc1)c1ccccn1 (stereo not given)
[in] Order the records by Kb, with each subsequent value no larger than the one before. Respond with an ordered listing of the labels, as requested.
[out] II, I, III
(II: 478 nM, I: 148 nM, III: 50.1 nM)

====

Test system: Muscarinic acetylcholine receptors; M2 & M3
Test: Selectivity ratio was calculated between Kb values at M2 and M3 muscarinic receptors
Format: protein assay
Details: Cavia porcellus
MEASUREMENT_LABEL: Ratio

Worked examples follow.
>  <COMPOUND>
Cc1nccn1CCC(CO)(c1ccccc1)c1ccccc1

>  <Ratio>
3.3

$$$$
>  <COMPOUND>
Cc1nccn1CC(C)C(C(N)=O)(c1ccccc1)c1ccccc1 (stereo unspecified)

>  <Ratio>
15.6

$$$$

(I) Cc1nccn1C(C)CC(C(N)=O)(c1ccccc1)c1ccccc1 (stereo unspecified)
(II) Cc1nccn1CCC(C(N)=O)(c1ccccc1)C1CCCCC1 (stereo unspecified)
(III) Cc1nccn1CCCCC(C(N)=O)(c1ccccc1)c1ccccc1
(IV) Cc1nccn1CCC(C(N)=O)(c1ccccc1)c1ccccn1 (stereo unspecified)
[in] Order the records by Ratio, with each subsequent value no larger than the one before. Respond with an ordered listing of the labels, as requested.
[out] II, IV, I, III

====

Target: Muscarinic acetylcholine receptor M3 (Cavia porcellus)
Assay: Antimuscarinic activity against M3 receptor of guinea pig ileum
Type: tissue-based
MEASUREMENT_LABEL: Kb (nM)

Worked examples follow.
>  <COMPOUND>
Cc1nccn1CCC(C(N)=O)C1c2ccccc2CCc2ccccc21 (centres undefined)

>  <TARGET_UNDER_TEST>
Muscarinic acetylcholine receptor M3 (Cavia porcellus)

>  <ENDPOINT_VALUE>
2140

$$$$
>  <COMPOUND>
Cc1nccn1C(C)CC(C(N)=O)(c1ccccc1)c1ccccc1 (centres undefined)

>  <TARGET_UNDER_TEST>
Muscarinic acetylcholine receptor M3 (Cavia porcellus)

>  <ENDPOINT_VALUE>
16.9

$$$$
>  <COMPOUND>
Cc1nccn1CCC(C(N)=O)(c1ccccc1)C(C)C (centres undefined)

>  <TARGET_UNDER_TEST>
Muscarinic acetylcholine receptor M3 (Cavia porcellus)

>  <ENDPOINT_VALUE>
394

$$$$
>  <COMPOUND>
Cc1nccn1CCCCCC(C(N)=O)(c1ccccc1)c1ccccc1

>  <TARGET_UNDER_TEST>
Muscarinic acetylcholine receptor M3 (Cavia porcellus)

>  <ENDPOINT_VALUE>
71.3

$$$$
>  <COMPOUND>
Cc1nccn1CCC(C(N)=O)(c1ccccc1)C1CCCCC1 (centres undefined)

>  <TARGET_UNDER_TEST>
Muscarinic acetylcholine receptor M3 (Cavia porcellus)

>  <ENDPOINT_VALUE>
19

$$$$
>  <COMPOUND>
Cc1ccc(C(CCn2ccnc2C)(C(N)=O)c2ccccc2)cc1 (centres undefined)

>  <TARGET_UNDER_TEST>
Muscarinic acetylcholine receptor M3 (Cavia porcellus)

>  <ENDPOINT_VALUE>
24.6

$$$$

(1) Cc1nccn1CCC(C(N)=O)(c1ccccc1)c1ccccn1 (centres undefined)
(2) CNC(=O)C(CCn1ccnc1C)(c1ccccc1)c1ccccc1
[in] Kindly identify the item with the lower Kb figure among these two: 1 and 2 Pick one and reply with its label.
[out] 1
(1: 2.86 nM, 2: 5150 nM)

====

Target: Muscarinic acetylcholine receptor M2 (Cavia porcellus)
Assay: Antimuscarinic activity against M2 receptor of guinea pig atrium
Details: Cardiac atrium
MEASUREMENT_LABEL: Kb (nM)

Worked examples follow.
>  <COMPOUND>
Cc1nccn1CCC(CO)(c1ccccc1)c1ccccc1

>  <Kb, nM>
83.8

$$$$
>  <COMPOUND>
Cc1nccn1CCC(O)(c1ccccc1)c1ccccc1

>  <Kb, nM>
50.1

$$$$
>  <COMPOUND>
Cc1nccn1CC(C)C(C(N)=O)(c1ccccc1)c1ccccc1 (configuration not stated)

>  <Kb, nM>
45.1

$$$$
>  <COMPOUND>
Cc1nccn1CCCC(C(N)=O)(c1ccccc1)c1ccccc1

>  <Kb, nM>
20.1

$$$$
>  <COMPOUND>
Cc1nccn1CCC(C(=O)O)(c1ccccc1)c1ccccc1

>  <Kb, nM>
82.7

$$$$

(A) Cc1nccn1C(C)CC(C(N)=O)(c1ccccc1)c1ccccc1 (configuration not stated)
(B) Cc1nccn1CCC(C(N)=O)(c1ccccc1)C1CCCCC1 (configuration not stated)
[in] Just curious, which one has the larger Kb reading, A or B ? Pick one and reply with its label.
[out] B

====

Target: Muscarinic acetylcholine receptor M3 (Cavia porcellus) (UniProt Q8VH26)
Sequence (Q8VH26 1-587): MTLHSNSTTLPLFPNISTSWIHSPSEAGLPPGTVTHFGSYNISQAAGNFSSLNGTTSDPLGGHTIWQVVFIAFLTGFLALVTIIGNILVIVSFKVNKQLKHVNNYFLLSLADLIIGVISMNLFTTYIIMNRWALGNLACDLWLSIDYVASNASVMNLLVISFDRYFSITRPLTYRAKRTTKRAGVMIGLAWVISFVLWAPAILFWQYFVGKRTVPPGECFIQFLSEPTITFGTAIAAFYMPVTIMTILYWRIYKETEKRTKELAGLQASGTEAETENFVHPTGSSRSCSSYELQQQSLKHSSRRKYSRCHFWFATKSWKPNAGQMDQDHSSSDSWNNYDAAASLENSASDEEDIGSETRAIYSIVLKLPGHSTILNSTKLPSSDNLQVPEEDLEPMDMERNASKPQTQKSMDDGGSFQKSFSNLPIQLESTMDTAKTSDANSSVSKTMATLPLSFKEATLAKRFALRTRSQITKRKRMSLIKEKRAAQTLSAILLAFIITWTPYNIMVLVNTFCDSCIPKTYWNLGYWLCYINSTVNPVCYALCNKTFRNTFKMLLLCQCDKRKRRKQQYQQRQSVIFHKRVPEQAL
Assay: Antimuscarinic activity against M3 receptor of guinea pig ileum
Format: tissue-based
MEASUREMENT_LABEL: Kb (nM)

Worked examples follow.
>  <SUBSTANCE_SMILES>
Cc1nccn1CCC(C(N)=O)(c1ccc(F)cc1)c1ccc(F)cc1

>  <Kb (nM)>
9.85

$$$$
>  <SUBSTANCE_SMILES>
Cc1nccn1CCC(C(=O)O)(c1ccccc1)c1ccccc1

>  <Kb (nM)>
6.95

$$$$

(1) Cc1nccn1CCC(C(=O)N(C)C)(c1ccccc1)c1ccccc1
(2) Cc1nccn1CCCCC(C(N)=O)(c1ccccc1)c1ccccc1
[in] Just curious, which one has the larger Kb reading, 1 or 2 ? Pick one and reply with its label.
[out] 1
(1: 258 nM, 2: 43.7 nM)
